Tested on: A498 renal
Assay: NCI tumour cell line growth inhibition, 48 h; in the data active = GI50 below about 0.43 µM; inactive = the rest
Outcome codes: active, inactive

[[record]]
molecule = "c1ccc2c(c1)c1ccccc1c1ccccc21"
classification = "inactive"

[[record]]
molecule = "Cc1sc2c(c1C)C(c1ccc(Cl)cc1)=N[C@@H](CC(=O)Nc1ccc(OCCOCCOCCOCCNc3cccc4c3C(=O)N(C3CCC(=O)NC3=O)C4=O)cc1)c1nnc(C)n1-2 (some centres undefined)"
classification = "active"

[[record]]
molecule = "NCCCOc1cc(Cl)ccc1NC(=O)c1cc2ccccc2cc1OCCCN"
classification = "inactive"

[[record]]
molecule = "NCCCOc1cc2ccccc2cc1C(=O)NCCCOc1cc2ccccc2cc1C(=O)Nc1ccc(Cl)cc1O"
classification = "inactive"

[[record]]
molecule = "CC(=O)[CH-]C(=O)c1ccccc1.CC(=O)[CH-]C(=O)c1ccccc1.O=S(=O)([O-])c1cc([O-])c2c([O-])cc(S(=O)(=O)[O-])cc2c1.[Na+].[Ti+4]"
classification = "inactive"

[[record]]
molecule = "CC1(C)N=C(N)N=C(N)N1c1cccc(OCCOc2cccc([N+](=O)[O-])c2)c1"
classification = "inactive"

[[record]]
molecule = "O=C(N/N=C/c1ccc(O)cc1O)c1cccnc1"
classification = "inactive"

[[record]]
molecule = "Clc1nc(Cl)c2ncn(Cc3ccccc3Cn3cnc4c(Cl)nc(Cl)nc43)c2n1"
classification = "inactive"

[[record]]
molecule = "COc1ccc(-c2noc(N)c2-c2cc(OC)c3c(c2)OCO3)cc1"
classification = "inactive"


###

System: K-562 leukemia
Assay: NCI tumour cell line growth inhibition, 48 h; in the data active = GI50 below about 0.43 µM; inactive = the rest
Outcome codes: Y for active, N for inactive

[[record]]
substancesmiles = "COc1ccc(-c2cc(Nc3ccnc(N4CCOCC4)n3)on2)cc1"
classification = "Y"

[[record]]
substancesmiles = "COc1cc(OC)c2sc(-c3ccc(-n4cncc4-c4cc(OC)c(OC)c(OC)c4)cc3)nc2c1"
classification = "N"

[[record]]
substancesmiles = "NCCCOc1cc2ccccc2cc1C(=O)NCCCOc1cc2ccccc2cc1C(=O)Nc1ccc(Cl)cc1O"
classification = "Y"

[[record]]
substancesmiles = "N#CC(C#N)=C1CCCOc2c1ccc1ccccc21"
classification = "N"

[[record]]
substancesmiles = "COc1ccc(-c2ccc(NNC(=O)c3ccc(F)cc3)nn2)cc1OC"
classification = "N"


###

Test system: MALME-3M melanoma
Assay: NCI tumour cell line growth inhibition, 48 h
recordedMetric: TGI

[[record]]
molecule = "CC1(C)N=C(N)N=C(N)N1c1cccc(OCCOc2cccc([N+](=O)[O-])c2)c1"
assayedsystem = "MALME-3M melanoma"
result = "> 100 µM"

[[record]]
molecule = "COc1cc(OC)c2sc(-c3ccc(-n4cncc4-c4cc(OC)c(OC)c(OC)c4)cc3)nc2c1"
assayedsystem = "MALME-3M melanoma"
result = "> 100 µM"

[[record]]
molecule = "CCOC(=O)CCC1(CCC(=O)OCC)CCCCCCCCC(CCC(=O)OCC)(CCC(=O)OCC)C(=O)C1=O"
assayedsystem = "MALME-3M melanoma"
result = "> 100 µM"

[[record]]
molecule = "O=C1CCSCCC(=O)Nc2ccccc2N1"
assayedsystem = "MALME-3M melanoma"
result = "> 100 µM"

[[record]]
molecule = "Cc1sc2c(c1C)C(c1ccc(Cl)cc1)=N[C@@H](CC(=O)Nc1ccc(OCCOCCOCCOCCNc3cccc4c3C(=O)N(C3CCC(=O)NC3=O)C4=O)cc1)c1nnc(C)n1-2 (some centres undefined)"
assayedsystem = "MALME-3M melanoma"
result = "> 100 µM"

[[record]]
molecule = "COc1ccc(CNc2nc(NC3CCCCC3)nc(NC3CCCCC3)n2)cc1"
assayedsystem = "MALME-3M melanoma"
result = "64.2 µM"

[[record]]
molecule = "O=C(N/N=C/c1ccc(O)cc1O)c1cccnc1"
assayedsystem = "MALME-3M melanoma"
result = "39.2 µM"

[[record]]
molecule = "CC(=O)OCCOCNC(=S)N/N=C/c1ccc([N+](=O)[O-])s1"
assayedsystem = "MALME-3M melanoma"
result = "> 100 µM"

[[record]]
molecule = "CCC[CH2][Sn]1([CH2]CCC)[O]CC(COc2c(Cl)cc(Cl)cc2Cl)[O]1 (centres undefined)"
assayedsystem = "MALME-3M melanoma"
result = "2.34 µM"


###

Test system: SW-620 colon
Experiment: NCI tumour cell line growth inhibition, 48 h
TGI: recorded values
recordedMetric: TGI

[[record]]
compound = "O=C1C2[C@@H](C(=O)N1c1ccc(Br)cc1)C13C(=CC2([N+](=O)[O-])[C@@H]2C(=O)N(c4ccc(Br)cc4)C(=O)[C@@H]21)c1ccccc1N3c1ccccc1 (stereo partly specified)"
result = "> 100 µM"

[[record]]
compound = "Cc1c(Cl)cccc1NC(=O)c1cccc([N+](=O)[O-])c1O"
result = "> 100 µM"

[[record]]
compound = "Cc1cn2c(/C=N/N=C(N)N)c(-c3ccc(Cl)c([N+](=O)[O-])c3)nc2s1"
result = "> 100 µM"

[[record]]
compound = "C1=NC(N(Cc2ccccc2)Cc2ccccc2)N(Cc2ccccc2)N1 (stereo unspecified)"
result = "49.9 µM"

[[record]]
compound = "C=CCCC1(C)CCCNC1=S (stereo unspecified)"
result = "> 100 µM"

[[record]]
compound = "CCCCCCCCCCCC(=O)OC[C@@H](C[As](=O)(O)O)OC(=O)CCCCCCCCCCC"
result = "29.1 µM"

[[record]]
compound = "Nc1c(S(=O)(=O)c2ccccc2)c2nc3ccccc3nc2n2c1nc1ccccc12"
result = "> 100 µM"

[[record]]
compound = "CNC(C)C(O)c1ccc2oc3cc(=O)c4ccccc4c-3nc2c1 (stereo unspecified)"
result = "> 100 µM"

[[record]]
compound = "O=C1C=C(Nc2ccc(S(=O)(=O)Nc3nccs3)cc2)c2ccccc2C1=O"
result = "43 µM"

[[record]]
compound = "N[C@H](Cc1ccc2oc3cc(=O)c4ccccc4c-3nc2c1)C(=O)O"
result = "> 100 µM"

[[record]]
compound = "O=P1(Cc2ccccc2)N(Cc2ccccc2)[C@@H]2CCCC[C@H]2N1Cc1ccccc1"
result = "30.1 µM"


###

Test system: SW-620 colon
Assay: NCI tumour cell line growth inhibition, 48 h
recordedMetric: GI50

[[record]]
compound = "NCCN.O=C([O-])[O-].O=C([O-])[O-].[Co+3].[K+]"
result = "> 100 µM"

[[record]]
compound = "NC(N)=N/N=C(\\N=Nc1ccccc1)c1ccc(Cl)cc1"
result = "1.41 µM"

[[record]]
compound = "O=C(NC1CCCCC1)c1ccc(Nc2ncnc3c2cnn3-c2ccccc2)cc1"
result = "> 100 µM"

[[record]]
compound = "c1ccc2c(c1)c1ccccc1c1ccccc21"
result = "> 100 µM"

[[record]]
compound = "CCC[CH2][Sn]1([CH2]CCC)[O]CC(COc2c(Cl)cc(Cl)cc2Cl)[O]1 (stereo not given)"
result = "1.13 µM"

[[record]]
compound = "NCCCOc1cc(Cl)ccc1NC(=O)c1cc2ccccc2cc1OCCCN"
result = "1.58 µM"

[[record]]
compound = "CNCCn1c(=O)c2cc(OC)c(OC)cc2c2cnc3cc4c(cc3c21)OCO4"
result = "0.0121 µM"

[[record]]
compound = "O=C(CCN1CCOCC1)Nc1cccc(-n2cc(-c3ccncc3)c(-c3ccc(Cl)c(O)c3)n2)c1"
result = "1.56 µM"

[[record]]
compound = "COc1cc(/C=C2\\CCC/C(=C\\c3ccc(OCC4CO4)c(OC)c3)C2=O)ccc1OCC1CO1 (stereo not given)"
result = "2.46 µM"

[[record]]
compound = "COc1ccc2c(c1)C(C)Cc1c(ncnc1-n1cnc3ccccc31)N2C (stereo not given)"
result = "0.379 µM"


###

GI50: recorded values
System: A498 renal
Test: NCI tumour cell line growth inhibition, 48 h
recordedMetric: GI50

[[record]]
compound = "C=CCn1c(SCC(=O)Nc2ccc(C(=O)/C=C/c3cc(OC)c(OC)c(OC)c3)cc2)nnc1-c1ccc(OC)cc1"
result = "1.5 µM"

[[record]]
compound = "CCOC(=O)c1sc(NC(=O)COc2cccc(/C=C3\\CCc4cc(OC)ccc4C3=O)c2)nc1C"
result = "16.3 µM"

[[record]]
compound = "COc1ccc(-c2cc(-c3ccc(Nc4ccnc5cc(Cl)ccc45)cc3)nc(N3CCOCC3)n2)cc1"
result = "27.5 µM"

[[record]]
compound = "COc1ccc(-c2nn(-c3cccc(Cl)c3)cc2-c2nc(N)[nH]c(=O)c2C#N)cc1"
result = "1.47 µM"

[[record]]
compound = "COc1cc(/C=C/C(=O)C(C(=O)/C=C/c2ccc(OC(=O)CCNC34CC5CC(CC(C5)C3)C4)c(OC)c2)C(=O)CCNC23CC4CC(CC(C4)C2)C3)ccc1OC(=O)CCNC12CC3CC(CC(C3)C1)C2 (stereo unspecified)"
result = "3.47 µM"

[[record]]
compound = "NC(=O)CNc1ccc([As]=[As]c2ccc(NCC(N)=O)cc2)cc1 (stereo unspecified)"
result = "4.69 µM"

